Data provenance is patent US5171864A.

Target: bee venom phospholipase A2 (Apis mellifera, UniProt P00630)
Sequence (P00630 34-167 limits assumed): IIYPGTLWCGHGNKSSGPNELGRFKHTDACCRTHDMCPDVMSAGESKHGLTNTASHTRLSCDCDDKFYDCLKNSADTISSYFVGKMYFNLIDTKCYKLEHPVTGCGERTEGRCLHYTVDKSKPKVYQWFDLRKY
Experiment: biochemical
Settings: pH 7.4; read-out: PLA2 IC50
pIC50: −log10 of the molar value.
Measured pIC50, listed per entry for reference.
ASSAY ENDPOINT: pIC50

>>> result("O=C(CCCCCCCCCCC(=O)NCC1=CC(=O)OC1OC(=O)Nc1ccccc1)NCC1=CC(=O)OC1O (stereo not drawn)")
"< 6.00"
>>> result("O=C(CCCCCCCCCCC(=O)NCC1=CC(=O)OC1OC(=O)Nc1ccccc1)NCC1=CC(=O)OC1OC(=O)Nc1ccccc1 (stereo not drawn)")
"< 6.00"
>>> result("CC(C)(C)C(=O)OC1OC(=O)C=C1COC(=O)CCCCCCCCCCC(=O)OCC1=CC(=O)OC1OC(=O)C(C)(C)C (stereo not drawn)")
"< 6.00"

---

Target: phosphoinositide-specific phospholipase C
Experiment: Inhibition of phosphoinositide-specific phospholipase C (PLC)
Settings: procedure of Bennett et al, Molecular Pharmacology 32:587-593 (1987)
ASSAY ENDPOINT: IC50

>>> result("O=C(CCCCCCCCCCC(=O)NCC1=CC(=O)OC1O)NCC1=CC(=O)OC1O (centres unmarked)")
"> 100 µM"
>>> result("O=C(CCCCCCCCCCC(=O)NCC1=CC(=O)OC1OC(=O)Nc1ccccc1)NCC1=CC(=O)OC1O (centres unmarked)")
"> 100 µM"
>>> result("CC(C)(C)C(=O)OC1OC(=O)C=C1COC(=O)CCCCCCCCCCC(=O)OCC1=CC(=O)OC1OC(=O)C(C)(C)C (centres unmarked)")
"> 100 µM"
>>> result("O=C1C=C(COC(=O)CCCCCCCCCCC(=O)OCC2=CC(=O)OC2O)C(O)O1 (centres unmarked)")
"> 100 µM"
>>> result("O=C(CCCCCCCCCCC(=O)NCC1=CC(=O)OC1OC(=O)Nc1ccccc1)NCC1=CC(=O)OC1OC(=O)Nc1ccccc1 (centres unmarked)")
"> 100 µM"

---

# maps each entry to its pIC50
Molecular target: bee venom phospholipase A2 (Apis mellifera, UniProt P00630)
Experiment: biochemical
Conditions: read-out: PLA2 IC50
pIC50: −log10 of the molar value.
ASSAY ENDPOINT: pIC50

>>> number("O=C1C=C(COC(=O)CCCCCCCCCCC(=O)OCC2=CC(=O)OC2O)C(O)O1 (centres unmarked)")
7.15
>>> number("O=C(CCCCCCCCCCC(=O)NCC1=CC(=O)OC1O)NCC1=CC(=O)OC1O (centres unmarked)")
7.52
